- Test system: NCI-H358 (KRAS^G12C mutation) cell
- assay-name: Cell assay of antiproliferative activity against NCI-H358 cell (Celltiter-Glo, 5 days)
- Format: cell-based
- applied-conditions: Homo sapiens, NCI-H358, 120 h, 5 days incubation
pIC50: −log10 of the molar value.
reported-endpoint: pIC50

I. C=CC(=O)N1CCN(c2nc(=O)n(-c3cnccc3S(C)(=O)=O)c3nc(-c4c(O)cccc4F)c(F)cc23)[C@@H](C)C1 [Example 55]
II. C=CC(=O)N1C[C@H](C)N(c2nc(=O)n(-c3c(C(C)C)cccc3S(C)(=O)=O)c3nc(-c4c(O)cccc4F)c(F)cc23)C[C@H]1C [Example 78A]
Lab note: record which item had the higher pIC50, I or II . API: response body contains the label of the selected item. II
(II: 6.77, I: 5.28)
